assay: Toxicity liver stage against HepG2, at 10uM; type: cell-based; set-up: test concentration 10 uM, cell line HepG2-A16-CD81EGFP; conditions: human, HepG2-A16-CD81EGFP cells; read-out: INHIBITION
Reported values of cytotoxicity at 10 µM for individual entries
Write down the numeric answer in % and omit the unit.

Example cases with answers are listed next.
[[record]]
compound = "O=C(NC1CCNCC1)C1(N2CCCCC2)Cc2ccccc2C1"
reading = -5.47

[[record]]
compound = "CN1CCN(Cc2ccsc2)Cc2cccnc21"
reading = -77.9

[[record]]
compound = "COc1cccc([C@@]2(O)CC[C@@H]3CN(C(=O)c4cn(C)nc4C)C[C@@H]32)c1"
reading = 3.51

[[record]]
compound = "Cc1cc(C)n(C2CCN(C(=O)CN3C(=O)CSc4ccccc43)C2)n1 (stereo not given)"
reading = -15.3

[[record]]
compound = "COc1c(C2CCCN2c2ncnc3c2CCC3)c(C)nn1C (stereo not given)"
reading = 10.5


Ask | Need cytotoxicity at 10 µM of CN(C)C(=O)[C@@H]1C[C@@H]2CCN(C3CCOCC3)C[C@@H]2O1 , thanks.
Reply | -7.56

Ask | Need cytotoxicity at 10 µM of Cc1nc2nc(C)c3c(=O)n(-c4ccn[nH]4)ccc3n2n1 , thanks.
Reply | 0.87

Ask | Need cytotoxicity at 10 µM of C=C(C)COc1ccccc1C(=O)NCCc1nncn1C , thanks.
Reply | -3.06

Ask | Need cytotoxicity at 10 µM of CCS(=O)(=O)c1ncc(CN2CCN(C)CC2)n1CCc1ccccc1 , thanks.
Reply | 2.44

Ask | Need cytotoxicity at 10 µM of Nc1nc2c(c(=O)[nH]1)CCN(C(=O)c1cccc3nccnc13)C2 , thanks.
Reply | -11.4

* * *

experiment: Toxicity liver stage against HepG2, at 10uM; type: cell-based; parameters: test concentration 10 uM, cell line HepG2-A16-CD81EGFP; details: human, HepG2-A16-CD81EGFP cells; read-out: INHIBITION
measured_endpoint: cytotoxicity at 10 µM (%)
Write down the numeric answer in % and omit the unit.

[[record]]
compound = "CC(Oc1ccc2c(c1)OCO2)C(=O)N1CCC(c2ncc[nH]2)CC1 (stereo unspecified)"
reading = -2.58

[[record]]
compound = "CCc1noc(CC)c1CC(=O)N1CCN(C(C#N)C(C)C)CC1 (stereo unspecified)"
reading = -9.66

[[record]]
compound = "CN(CCn1cncc1-c1cnc(N2CCOCC2)nc1)C1CCCC1"
reading = 7.25

[[record]]
compound = "Cc1ccnc(CC(C)N(C)c2cc(C3CCNCC3)nc(C)n2)c1 (stereo unspecified)"
reading = -46.2


Ask | Need cytotoxicity at 10 µM of CCOc1ncccc1C(=O)N(C)Cc1ncc(C)c(OC)c1C , thanks.
Reply | 3.06

Ask | Need cytotoxicity at 10 µM of O=C1CCCCN1CCC(=O)N1CCCCC1c1ccc(F)cc1 (stereo unspecified) , thanks.
Reply | -41.7

Ask | Need cytotoxicity at 10 µM of Cn1cc(CN2C[C@@H]3COC[C@]3(C(=O)NCc3cccs3)C2)cn1 , thanks.
Reply | 7.22

* * *

Reported values of cytotoxicity at 10 µM for individual entries
test: Toxicity liver stage against HepG2, at 10uM; type: cell-based; parameters: test concentration 10 uM, cell line HepG2-A16-CD81EGFP; settings: human, HepG2-A16-CD81EGFP cells; read-out: INHIBITION
Write down the numeric answer in % and omit the unit.

Example cases with answers are listed next.
[[record]]
molecule = "O=C(CC1CC1)N1C[C@H]2CCN[C@H]2C1"
reading = 5.75

[[record]]
molecule = "CC(C(=O)NCc1ccc(-n2cncn2)nc1)S(C)(=O)=O (configuration not stated)"
reading = 7.41

[[record]]
molecule = "Cc1ccc(CN2CC[C@H]3OCC[C@@H](c4nc(C)no4)[C@H]3C2)cc1"
reading = -6.95

[[record]]
molecule = "COc1ccc2c(c1)CN(CC(=O)NC1CCCC1)CC2"
reading = -1.77

[[record]]
molecule = "CC(C)n1cc(C(=O)NC2CN3CCC2CC3)c2ccccc21 (configuration not stated)"
reading = -59.7

[[record]]
molecule = "Cc1nn(C)c(C)c1-c1ccc(=O)n(C(C)C(=O)NCc2ccco2)n1 (configuration not stated)"
reading = 6.93

[[record]]
molecule = "CC(C)c1nc2n(n1)CC(NCCc1cccs1)CC2 (configuration not stated)"
reading = -5.71

[[record]]
molecule = "Cc1noc(C)c1CN(C)C(=O)NC1CCC(O)CC1 (configuration not stated)"
reading = -9.21

[[record]]
molecule = "CCNc1c(NC(=O)NCCOC)c(=O)oc2ccccc12"
reading = -2.89

[[record]]
molecule = "CC[C@@H](CO)NC(=O)c1cccc(CCC(C)(C)O)c1"
reading = -3.33


Ask | Need cytotoxicity at 10 µM of CCc1cc(N(C)Cc2ccncn2)n2nc(C)c(C)c2n1 , thanks.
Reply | 4.34

Ask | Need cytotoxicity at 10 µM of O=C(NC1CCOCC1)C1CC(=O)N(Cc2ccccn2)C1 (configuration not stated) , thanks.
Reply | -0.0985

Ask | Need cytotoxicity at 10 µM of COc1ncccc1CNC(=O)c1cnccn1 , thanks.
Reply | -8.77

Ask | Need cytotoxicity at 10 µM of FC(F)(F)C1CCCn2c(CNCc3cccs3)nnc21 (configuration not stated) , thanks.
Reply | 3.79

Ask | Need cytotoxicity at 10 µM of CN(C)CCN(C)C1CCN(C(C(=O)O)c2ccc(F)c(Cl)c2)CC1 (configuration not stated) , thanks.
Reply | 2.95

Ask | Need cytotoxicity at 10 µM of CN1[C@@H]2CC[C@H]1CN(c1cc(Sc3cccs3)nc(N)n1)CC2 , thanks.
Reply | -8.02
